test_target: His6-SET (full length) (human, UniProt Q01105 1-290)
Sequence (Q01105 whole entry): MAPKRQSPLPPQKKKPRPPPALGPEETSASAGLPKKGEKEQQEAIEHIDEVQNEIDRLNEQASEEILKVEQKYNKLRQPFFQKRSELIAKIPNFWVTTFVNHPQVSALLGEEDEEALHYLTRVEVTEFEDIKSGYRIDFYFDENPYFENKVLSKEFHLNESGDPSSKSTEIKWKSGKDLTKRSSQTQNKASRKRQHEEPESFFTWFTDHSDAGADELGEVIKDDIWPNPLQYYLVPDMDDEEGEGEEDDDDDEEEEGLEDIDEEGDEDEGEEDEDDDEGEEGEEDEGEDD
protocol: pull-down
value_kind: binding result

# binder, value_reported
data = [
    ("GST-Sgo1 WT (241–387) (domain or fragment, human, UniProt Q5FBB7 241-387, looked up) VQHNACQWSKDQVNLSPKLIQPGTFTKTKEDILESKSEQTKSKQRDTQERKREEKRKANRRKSKRMSKYKENKSENKKTVPQKKMHKSVSSNDAYNFNLEEGVHLTPFRQKVSNDSNREENNESEVSLCESSGSGDDSDDLYLPTCK", "binds"),
    ("GST-Sgo1 ΔCohesin (241–387 depleted of 313–353) (domain or fragment, human, UniProt Q5FBB7 241-387, looked up) VQHNACQWSKDQVNLSPKLIQPGTFTKTKEDILESKSEQTKSKQRDTQERKREEKRKANRRKSKRMSKYKENNDSNREENNESEVSLCESSGSGDDSDDLYLPTCK", "binds"),
    ("GST-Sgo1 fragment 115–353 (domain or fragment, human, UniProt Q5FBB7 115-353, looked up) QEICSSGMDPNSDDSSRNLFVKDLPQIPLEETELPGQGESFQIEDQIPTIPQDTLGVDFDSGEAKSTDNVLPRTVSVRSSLKKHCNSICQFDSLDDFETSHLAGKSFEFERVGFLDPLVNMHIPENVQHNACQWSKDQVNLSPKLIQPGTFTKTKEDILESKSEQTKSKQRDTQERKREEKRKANRRKSKRMSKYKENKSENKKTVPQKKMHKSVSSNDAYNFNLEEGVHLTPFRQKVS", "binds"),
]
